System: 242566-281-R-J2-PDC complex spheroid viability
Assay: Anticancer human tumor 242566-281-R-J2-PDC patient-derived pancreatic carcinoma cell line growth inhibition [CLK]
Settings: second compound 0.0316 µM; first compound 10 µM; stronger effect = lower value
Could you please mark 1.0 for values of viability, T/C below 30% and 0.0 for values at or above it?

These recorded examples may help you get a feel for the data.
C=CC(=O)N1CCN(c2nc(=O)n(-c3c(C)ccnc3C(C)C)c3nc(-c4c(O)cccc4F)c(F)cc23)C(C)C1 (stereo not given) + CNC(=O)c1ccc(Nc2nc(OC3CCCC3)c3c(-c4ccc5nc(C)oc5c4)c[nH]c3n2)c(OC)c1 : 0.0
CCCS(=O)(=O)Nc1ccc(F)c(C(=O)c2c[nH]c3ncc(-c4ccc(Cl)cc4)cc23)c1F + CNC(=O)c1ccc(Nc2nc(OC3CCCC3)c3c(-c4ccc5nc(C)oc5c4)c[nH]c3n2)c(OC)c1 : 1.0
Nc1ccn(C2OC(CO)C(O)C2(F)F)c(=O)n1 (stereo not given) + CNC(=O)c1ccc(Nc2nc(OC3CCCC3)c3c(-c4ccc5nc(C)oc5c4)c[nH]c3n2)c(OC)c1 : 1.0

Now turn to the next compound.
## Task In plain terms, does CC(CO)NC(=O)c1cc(-c2ccc(Cl)cc2)nn(-c2cnn(C)c2)c1=O (stereo not given) + CNC(=O)c1ccc(Nc2nc(OC3CCCC3)c3c(-c4ccc5nc(C)oc5c4)c[nH]c3n2)c(OC)c1 come in under 30% for viability, T/C?
## Result 0.0

---

Here, each record is paired with measured viability, T/C data.
System: 242566-281-R-J2-PDC complex spheroid viability
Assay: Anticancer human tumor 242566-281-R-J2-PDC cell line growth inhibition [CLK];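 note: spheroids exposed to compounds for 7 days before readout; 100% = DMSO vehicle control wells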
Settings: second compound 3.16 µM; first compound 0.1 µM; stronger effect = lower value
Return type: number; implicit unit %.

Solved cases below.
O=C(c1cc(Cc2n[nH]c(=O)c3ccccc23)ccc1F)N1CCN(C(=O)C2CC2)CC1 + CN1CCN(c2cc(C(=O)Nc3cc4cc(-c5cnn(C)c5)ccc4cn3)ccn2)CC1 : 7.02
C#Cc1c(F)ccc2cc(O)cc(-c3ncc4c(N5CC6CCC(C5)N6)nc(OCC56CCCN5CC(F)C6)nc4c3F)c12 (stereo not given) + CN1CCN(c2cc(C(=O)Nc3cc4cc(-c5cnn(C)c5)ccc4cn3)ccn2)CC1 : 2.24
CC1(C)CCC(CN2CCN(c3ccc(C(=O)NS(=O)(=O)c4ccc(NCC5CCOCC5)c([N+](=O)[O-])c4)c(Oc4cnc5[nH]ccc5c4)c3)CC2)=C(c2ccc(Cl)cc2)C1 + CN1CCN(c2cc(C(=O)Nc3cc4cc(-c5cnn(C)c5)ccc4cn3)ccn2)CC1 : 7.2
CC(CO)NC(=O)c1cc(-c2ccc(Cl)cc2)nn(-c2cnn(C)c2)c1=O (stereo not given) + CNC(=O)c1ccc(Nc2nc(OC3CCCC3)c3c(-c4ccc5nc(C)oc5c4)c[nH]c3n2)c(OC)c1 : 62.5

## Task Given the entry COc1ccc([C@@H](O)c2cc(-c3ncnc4cc(N5CCOCC5)ccc34)c(F)cc2Cl)nn1 + CN1CCN(c2cc(C(=O)Nc3cc4cc(-c5cnn(C)c5)ccc4cn3)ccn2)CC1 , what viability, T/C was observed with 242566-281-R-J2-PDC complex spheroid viability?
## Result 6.92

---

Test system: 242566-281-R-J2-PDC complex spheroid viability
Experiment: Anticancer human tumor 242566-281-R-J2-PDC cell line growth inhibition [CLK];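 note: spheroids exposed to compounds for 7 days before readout; 100% = DMSO vehicle control wells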
Conditions: second compound 0.0316 µM; first compound 0.3 µM; stronger effect = lower value
From the text: A high-throughput screen of multi-cell type tumor spheroids was designed to identify active combinations of […] and targeted small molecules. Complex spheroids include a stromal component modeled by human endothelial cells (HUVEC) and fibroblasts modeled by human mesenchymal stem cells (MSCs). […] Compounds. […] If the clinical Cmax for an agent had not been determined, the highest concentration tested was 10 microM. […]
endpointName: viability, T/C (%)
Return type: number; implicit unit %.

Solved cases below.
NC(=O)C(=Cn1cnc(-c2cc(C(F)(F)F)cc(C(F)(F)F)c2)n1)c1cncnc1 + CNC(=O)c1ccc(Nc2nc(OC3CCCC3)c3c(-c4ccc5nc(C)oc5c4)c[nH]c3n2)c(OC)c1 : 141
NC(=O)C(=Cn1cnc(-c2cc(C(F)(F)F)cc(C(F)(F)F)c2)n1)c1cncnc1 + CN1CCN(c2cc(C(=O)Nc3cc4cc(-c5cnn(C)c5)ccc4cn3)ccn2)CC1 : 84.1
C=CC(=O)Nc1cc(Nc2nccc(-c3cn(C)c4ccccc34)n2)c(OC)cc1N(C)CCN(C)C + CNC(=O)c1ccc(Nc2nc(OC3CCCC3)c3c(-c4ccc5nc(C)oc5c4)c[nH]c3n2)c(OC)c1 : 92.8

## Task # input molecule: CC(C)CC(NC(=O)C(Cc1ccccc1)NC(=O)c1cnccn1)B(O)O (stereo unspecified) + CN1CCN(c2cc(C(=O)Nc3cc4cc(-c5cnn(C)c5)ccc4cn3)ccn2)CC1 ; wanted: its viability, T/C
## Result 0.23

## Task Please answer likewise for C=CC(=O)Nc1cc(Nc2nccc(-c3cn(C)c4ccccc34)n2)c(OC)cc1N(C)CCN(C)C + CN1CCN(c2cc(C(=O)Nc3cc4cc(-c5cnn(C)c5)ccc4cn3)ccn2)CC1
## Result 71.8

## Task Please answer likewise for CC(C)CC(NC(=O)C(Cc1ccccc1)NC(=O)c1cnccn1)B(O)O (stereo unspecified) + CNC(=O)c1ccc(Nc2nc(OC3CCCC3)c3c(-c4ccc5nc(C)oc5c4)c[nH]c3n2)c(OC)c1
## Result 0.56

---

Test system: 242566-281-R-J2-PDC complex spheroid viability
Experiment: Anticancer human tumor 242566-281-R-J2-PDC cell line growth inhibition [CLK]; active = viability on the fitted dose curve at most 10% of control; inactive = the rest;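 note: spheroids exposed to compounds for 7 days before readout; 100% = DMSO vehicle control wells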
Details: second compound 1 µM; first compound 0.316 µM
Your response should consist of one outcome taken from active, inactive

These recorded examples may help you get a feel for the data.
C#Cc1c(F)ccc2cc(O)cc(-c3ncc4c(N5CC6CCC(C5)N6)nc(OCC56CCCN5CC(F)C6)nc4c3F)c12 (stereo not given) + CNC(=O)c1ccc(Nc2nc(OC3CCCC3)c3c(-c4ccc5nc(C)oc5c4)c[nH]c3n2)c(OC)c1 : inactive
O=c1[nH]cc(F)c(=O)[nH]1 + CNC(=O)c1ccc(Nc2nc(OC3CCCC3)c3c(-c4ccc5nc(C)oc5c4)c[nH]c3n2)c(OC)c1 : inactive
COc1cccc2c1C(=O)c1c(O)c3c(c(O)c1C2=O)CC(O)(C(=O)CO)CC3OC1CC(N)C(O)C(C)O1 (stereo not given) + CN1CCN(c2cc(C(=O)Nc3cc4cc(-c5cnn(C)c5)ccc4cn3)ccn2)CC1 : active
C=CC(=O)N1CCN(c2nc(=O)n(-c3c(C)ccnc3C(C)C)c3nc(-c4c(O)cccc4F)c(F)cc23)C(C)C1 (stereo not given) + CNC(=O)c1ccc(Nc2nc(OC3CCCC3)c3c(-c4ccc5nc(C)oc5c4)c[nH]c3n2)c(OC)c1 : inactive

## Task For COc1ccc([C@@H](O)c2cc(-c3ncnc4cc(N5CCOCC5)ccc34)c(F)cc2Cl)nn1 + CNC(=O)c1ccc(Nc2nc(OC3CCCC3)c3c(-c4ccc5nc(C)oc5c4)c[nH]c3n2)c(OC)c1 , what call appears in the results of this test?
## Result inactive

## Task Please answer likewise for CC(Nc1ccc2c(c1)OCCn1cc(N3C(=O)OCC3C(F)F)nc1-2)C(N)=O (stereo not given) + CNC(=O)c1ccc(Nc2nc(OC3CCCC3)c3c(-c4ccc5nc(C)oc5c4)c[nH]c3n2)c(OC)c1
## Result inactive

## Task Please answer likewise for CCCS(=O)(=O)Nc1ccc(F)c(C(=O)c2c[nH]c3ncc(-c4ccc(Cl)cc4)cc23)c1F + CN1CCN(c2cc(C(=O)Nc3cc4cc(-c5cnn(C)c5)ccc4cn3)ccn2)CC1
## Result active

## Task Please answer likewise for CC(CO)NC(=O)c1cc(-c2ccc(Cl)cc2)nn(-c2cnn(C)c2)c1=O (stereo not given) + CN1CCN(c2cc(C(=O)Nc3cc4cc(-c5cnn(C)c5)ccc4cn3)ccn2)CC1
## Result active

## Task Please answer likewise for CC1COCCN1c1cc(C2(S(C)(=N)=O)CC2)nc(-c2ccnc3[nH]ccc23)n1 (stereo not given) + CN1CCN(c2cc(C(=O)Nc3cc4cc(-c5cnn(C)c5)ccc4cn3)ccn2)CC1
## Result active

---

Here, each record is paired with measured viability, T/C data.
System: 242566-281-R-J2-PDC complex spheroid viability
Experiment: Anticancer human tumor 242566-281-R-J2-PDC cell line growth inhibition [CLK];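 note: spheroids exposed to compounds for 7 days before readout; 100% = DMSO vehicle control wells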
Conditions: second compound 0.1 µM; first compound 0.316 µM; stronger effect = lower value
Return type: number; implicit unit %.

CC(Nc1ccc2c(c1)OCCn1cc(N3C(=O)OCC3C(F)F)nc1-2)C(N)=O (stereo not given) + CN1CCN(c2cc(C(=O)Nc3cc4cc(-c5cnn(C)c5)ccc4cn3)ccn2)CC1 : 54.1
CC(=O)O[C@H]1C(=O)[C@@]2(C)[C@H]([C@H](OC(=O)c3ccccc3)[C@]3(O)C[C@H](OC(=O)[C@H](O)[C@@H](NC(=O)c4ccccc4)c4ccccc4)C(C)=C1C3(C)C)[C@]1(OC(C)=O)CO[C@@H]1C[C@@H]2O + CN1CCN(c2cc(C(=O)Nc3cc4cc(-c5cnn(C)c5)ccc4cn3)ccn2)CC1 : 27.7
Nc1ccn(C2OC(CO)C(O)C2(F)F)c(=O)n1 (stereo not given) + CNC(=O)c1ccc(Nc2nc(OC3CCCC3)c3c(-c4ccc5nc(C)oc5c4)c[nH]c3n2)c(OC)c1 : 26.7
CC(CO)NC(=O)c1cc(-c2ccc(Cl)cc2)nn(-c2cnn(C)c2)c1=O (stereo not given) + CNC(=O)c1ccc(Nc2nc(OC3CCCC3)c3c(-c4ccc5nc(C)oc5c4)c[nH]c3n2)c(OC)c1 : 93

Shifting focus to the molecule that follows.
## Task # input molecule: O=C(c1cc(Cc2n[nH]c(=O)c3ccccc23)ccc1F)N1CCN(C(=O)C2CC2)CC1 + CNC(=O)c1ccc(Nc2nc(OC3CCCC3)c3c(-c4ccc5nc(C)oc5c4)c[nH]c3n2)c(OC)c1 ; wanted: its viability, T/C
## Result 117
